Reference for the values: paper PMC6850403

# Assay Procedure: Human mass balance
# Assay type: in vivo
# Condition Label: urine, po, 100 mg
Endpoint Name: dose excreted

Query: dose excreted; subject: CN1CC[C@@H](NC(=O)Nc2ccc(C#N)cc2)C[C@@H]1c1nc2ccccc2[nH]1 [Glasdegib]
Result: ≥ 49%

----------
# Assay type: in vivo, human
# Condition Label: human, plasma, po, 100 mg, Cmax, arithmetic mean ± SD, 100 mg oral tablet, single dose, fasted
Endpoint Name: Cmax (ng/mL)
Give bare numbers, in ng/mL.

Query: Item under review: CN1CC[C@@H](NC(=O)Nc2ccc(C#N)cc2)C[C@@H]1c1nc2ccccc2[nH]1 [Glasdegib] . Reported Cmax?
Result: 684
